- Tested on: EKVX
- procedureDetails: Antiproliferative activity against human EKVX cells assessed as cell growth at 10^-7 M after 48 hrs by sulforhodamine B assay
- Type: functional
- conditionSet: read-out: Activity
Parameter: growth at 0.1 µM. Scope: all listed entries.
Reply with just the number (in %).

Here's what some known entries look like.
{"columns": ["structureSmilesString", "testedTarget", "observedValue"],
 "data": [
  ["CNC(=O)c1cc(Oc2ccc3nc(NC(=O)c4cc(C(F)(F)F)cc(C(F)(F)F)c4)sc3c2)ccn1", "EKVX", 91],
  ["CNC(=O)c1cc(Oc2ccc3nc(NC(=O)Nc4ccc(Cl)c(Cl)c4)sc3c2)ccn1", "EKVX", 93],
  ["CNC(=O)c1cc(Oc2ccc3nc(NC(=O)Nc4ccc(Cl)c(C(F)(F)F)c4)sc3c2)ccn1", "EKVX", 94]
]}

Now consider a different compound.
Lookup: Entry under review: CNC(=O)c1cc(Oc2ccc3nc(NC(=O)Nc4cc(C(F)(F)F)cc(C(F)(F)F)c4)sc3c2)ccn1 . Reported growth at 0.1 µM?
Found: 92

----------
- System: SN12C
- procedureDetails: Antiproliferative activity against human SN12C cells assessed as cell growth at 10^-8 M after 48 hrs by sulforhodamine B assay
- Assay type: functional
- conditionSet: read-out: Activity
assayEndpoint: growth at 0.01 µM (%)
Reply with just the number (in %).

Here's what some known entries look like.
{"columns": ["structureSmilesString", "testedTarget", "readoutUnits", "observedValue"],
 "data": [
  ["CNC(=O)c1cc(Oc2ccc3nc(NC(=O)Nc4ccc(Cl)c(Cl)c4)sc3c2)ccn1", "SN12C", "%", 102],
  ["CNC(=O)c1cc(Oc2ccc3nc(NC(=O)Nc4ccc(Cl)c(C(F)(F)F)c4)sc3c2)ccn1", "SN12C", "%", 97],
  ["CNC(=O)c1cc(Oc2ccc3nc(NC(=O)Nc4cc(C(F)(F)F)cc(C(F)(F)F)c4)sc3c2)ccn1", "SN12C", "%", 99]
]}

Lookup: Entry under review: CNC(=O)c1cc(Oc2ccc3nc(NC(=O)c4cc(C(F)(F)F)cc(C(F)(F)F)c4)sc3c2)ccn1 . Reported growth at 0.01 µM?
Found: 98

----------
- procedureDetails: Antiproliferative activity against human TK10 cells assessed as growth inhibition after 48 hrs by sulforhodamine B assay
- Assay type: functional
- conditionSet: TK-10, 48 h
# strict inequality: GI50 < 3 µM yields class 1, everything else yields class 0

Worked examples, 3 compounds total:
{"columns": ["compound", "groupLabel"],
 "data": [
  ["CNC(=O)c1cc(Oc2ccc3nc(NC(=O)Nc4cc(C(F)(F)F)cc(C(F)(F)F)c4)sc3c2)ccn1", "class 1"],
  ["CNC(=O)c1cc(Oc2ccc3nc(NC(=O)c4cc(C(F)(F)F)cc(C(F)(F)F)c4)sc3c2)ccn1", "class 0"],
  ["CNC(=O)c1cc(Oc2ccc3nc(NC(=O)Nc4ccc(Cl)c(Cl)c4)sc3c2)ccn1", "class 0"]
]}

Lookup: is_below(GI50, 3 µM) for CNC(=O)c1cc(Oc2ccc(NC(=O)Nc3ccc(Cl)c(C(F)(F)F)c3)cc2)ccn1 [SORAFENIB] ?
Found: class 0

Lookup: is_below(GI50, 3 µM) for CNC(=O)c1cc(Oc2ccc3nc(NC(=O)Nc4ccc(Cl)c(C(F)(F)F)c4)sc3c2)ccn1 ?
Found: class 1

----------
- procedureDetails: Antiproliferative activity against human HL-60(TB) cells assessed as cell growth at 10^-5 M after 48 hrs by sulforhodamine B assay
- Format: functional
- conditionSet: HL-60, 48 h, read-out: Activity
Parameter: growth at 10 µM. Scope: all listed entries.
Reply with just the number (in %).

Here's what some known entries look like.
{"columns": ["structureSmilesString", "growth at 10 µM (%)"],
 "data": [
  ["CNC(=O)c1cc(Oc2ccc3nc(NC(=O)c4ccc5c(c4)OCCO5)sc3c2)ccn1", 93.7],
  ["CNC(=O)c1cc(Oc2ccc3nc(NC(=O)Nc4ccc(F)cc4F)sc3c2)ccn1", 98.3],
  ["CNC(=O)c1cc(Oc2ccc3nc(NC(=O)c4ccc(Cl)c(C(F)(F)F)c4)sc3c2)ccn1", 89.4]
]}

Lookup: Entry under review: CNC(=O)c1cc(Oc2ccc3nc(NC(=O)c4cc(C(F)(F)F)cc(C(F)(F)F)c4)sc3c2)ccn1 . Reported growth at 10 µM?
Found: -47

Lookup: Entry under review: CNC(=O)c1cc(Oc2ccc3nc(NC(=O)Nc4ccc(Cl)c(Cl)c4)sc3c2)ccn1 . Reported growth at 10 µM?
Found: 95

----------
- System: MCF7
- procedureDetails: Antiproliferative activity against human MCF7 cells assessed as growth inhibition after 48 hrs by sulforhodamine B assay
- Type: functional
- conditionSet: MCF7, 48 h
assayEndpoint: GI50
Don't forget the unit after the value.

Here's what some known entries look like.
{"columns": ["structureSmilesString", "observedValue"],
 "data": [
  ["CNC(=O)c1cc(Oc2ccc3nc(NC(=O)c4cc(C(F)(F)F)cc(C(F)(F)F)c4)sc3c2)ccn1", "3370 nM"],
  ["CNC(=O)c1cc(Oc2ccc(NC(=O)Nc3ccc(Cl)c(C(F)(F)F)c3)cc2)ccn1", "2510 nM"]
]}

Lookup: Entry under review: CNC(=O)c1cc(Oc2ccc3nc(NC(=O)Nc4ccc(Cl)c(Cl)c4)sc3c2)ccn1 . Reported GI50?
Found: 2650 nM

Lookup: Entry under review: CNC(=O)c1cc(Oc2ccc3nc(NC(=O)Nc4cc(C(F)(F)F)cc(C(F)(F)F)c4)sc3c2)ccn1 . Reported GI50?
Found: 1050 nM

Lookup: Entry under review: CNC(=O)c1cc(Oc2ccc3nc(NC(=O)Nc4ccc(Cl)c(C(F)(F)F)c4)sc3c2)ccn1 . Reported GI50?
Found: 1720 nM

----------
- Test system: A498
- procedureDetails: Antiproliferative activity against human A498 cells assessed as growth inhibition after 48 hrs by sulforhodamine B assay
- Type: functional
- conditionSet: A498, 48 h
Decide by TGI: equal to or exceeding 6 µM means Criterion met, less means Criterion not met.

Worked examples, 3 compounds total:
{"columns": ["structureSmilesString", "testedTarget", "groupLabel"],
 "data": [
  ["CNC(=O)c1cc(Oc2ccc3nc(NC(=O)c4cc(C(F)(F)F)cc(C(F)(F)F)c4)sc3c2)ccn1", "A498", "Criterion not met"],
  ["CNC(=O)c1cc(Oc2ccc(NC(=O)Nc3ccc(Cl)c(C(F)(F)F)c3)cc2)ccn1", "A498", "Criterion met"],
  ["CNC(=O)c1cc(Oc2ccc3nc(NC(=O)Nc4cc(C(F)(F)F)cc(C(F)(F)F)c4)sc3c2)ccn1", "A498", "Criterion not met"]
]}

Lookup: Is TGI at least 6 µM? Consider CNC(=O)c1cc(Oc2ccc3nc(NC(=O)Nc4ccc(Cl)c(Cl)c4)sc3c2)ccn1
Found: Criterion met

Lookup: Is TGI at least 6 µM? Consider CNC(=O)c1cc(Oc2ccc3nc(NC(=O)Nc4ccc(Cl)c(C(F)(F)F)c4)sc3c2)ccn1
Found: Criterion met

----------
- Test system: MCF7
- procedureDetails: Antiproliferative activity against human MCF7 cells assessed as cell growth at 10^-7 M after 48 hrs by sulforhodamine B assay
- Type: functional
- conditionSet: MCF7, 48 h, read-out: Activity
assayEndpoint: growth at 0.1 µM (%)
Reply with just the number (in %).

Here's what some known entries look like.
{"columns": ["structureSmilesString", "growth at 0.1 µM / %"],
 "data": [
  ["CNC(=O)c1cc(Oc2ccc3nc(NC(=O)Nc4cc(C(F)(F)F)cc(C(F)(F)F)c4)sc3c2)ccn1", 87],
  ["CNC(=O)c1cc(Oc2ccc3nc(NC(=O)Nc4ccc(Cl)c(Cl)c4)sc3c2)ccn1", 89],
  ["CNC(=O)c1cc(Oc2ccc3nc(NC(=O)Nc4ccc(Cl)c(C(F)(F)F)c4)sc3c2)ccn1", 89]
]}

Now consider a different compound.
Lookup: Entry under review: CNC(=O)c1cc(Oc2ccc3nc(NC(=O)c4cc(C(F)(F)F)cc(C(F)(F)F)c4)sc3c2)ccn1 . Reported growth at 0.1 µM?
Found: 89

----------
- procedureDetails: Antiproliferative activity against human RXF393 cells assessed as growth inhibition after 48 hrs by sulforhodamine B assay
- Type: functional
- conditionSet: RXF 393, 48 h, read-out: LC50 (the source's name)
assayEndpoint: CC50 (µM)
Reply with just the number (in µM).

{"columns": ["structureSmilesString", "observedValue"],
 "data": [
  ["CNC(=O)c1cc(Oc2ccc3nc(NC(=O)c4cc(C(F)(F)F)cc(C(F)(F)F)c4)sc3c2)ccn1", 40],
  ["CNC(=O)c1cc(Oc2ccc3nc(NC(=O)Nc4cc(C(F)(F)F)cc(C(F)(F)F)c4)sc3c2)ccn1", 7.16],
  ["CNC(=O)c1cc(Oc2ccc(NC(=O)Nc3ccc(Cl)c(C(F)(F)F)c3)cc2)ccn1", 39.8],
  ["CNC(=O)c1cc(Oc2ccc3nc(NC(=O)Nc4ccc(Cl)c(C(F)(F)F)c4)sc3c2)ccn1", 13.9]
]}

Now consider a different compound.
Lookup: Entry under review: CNC(=O)c1cc(Oc2ccc3nc(NC(=O)Nc4ccc(Cl)c(Cl)c4)sc3c2)ccn1 . Reported CC50?
Found: 7.24
